Data provenance is patent US6376521B1.

target.desc: A2A adenosine receptors (Rattus norvegicus, UniProt P30543)
Construct: from tissue
Sequence (P30543 whole entry): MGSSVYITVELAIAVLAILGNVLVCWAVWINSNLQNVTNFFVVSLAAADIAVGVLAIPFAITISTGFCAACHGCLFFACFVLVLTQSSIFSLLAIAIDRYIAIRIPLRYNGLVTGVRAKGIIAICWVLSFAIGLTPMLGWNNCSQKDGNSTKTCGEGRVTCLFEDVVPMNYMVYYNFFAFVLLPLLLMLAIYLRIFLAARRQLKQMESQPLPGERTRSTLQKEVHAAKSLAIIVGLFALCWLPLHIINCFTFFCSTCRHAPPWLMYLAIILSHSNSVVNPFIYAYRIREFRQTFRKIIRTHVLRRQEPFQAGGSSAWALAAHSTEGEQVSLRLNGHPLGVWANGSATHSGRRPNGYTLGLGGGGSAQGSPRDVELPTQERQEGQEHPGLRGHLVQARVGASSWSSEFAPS
method: Displacement of specific [3H]CGS 21680 binding in rat striatal membranes
condition.description: Table 3; [3H]CGS 21680, rat striatal membranes, n = 3-6; read-out: rA2A Ki ± S.E.M.
readout.type: Ki (µM)
Return type: number; implicit unit µM.

Example compounds with recorded Ki:
CCSC(=O)C1=C(C)NC(c2ccccc2)=C(C(=O)OCc2ccccc2)C1CC (racemic) | 14.3
CCOC(=O)C1=C(C)NC(C2CCCC2)=C(C(=O)OCc2ccccc2)C1C#Cc1ccccc1 (racemic) | 7.16

-- ask Form field - read-out: Ki; system: A2A adenosine receptors (Rattus norvegicus, UniProt P30543); submitted item: CCOC(=O)C1=C(c2ccccc2)NC(C)=C(C(=O)SCCOC)C1CC (racemic)
-- reply 12.5

-- ask Form field - read-out: Ki; system: A2A adenosine receptors (Rattus norvegicus, UniProt P30543); submitted item: CCOC(=O)C1=C(C)NC(c2ccccc2)=C(C(=O)OCC)C1CC (racemic)
-- reply 21.8

###

target.desc: A1 adenosine receptors (Rattus norvegicus)
Construct: from tissue
method: Displacement of specific [3H]R-PIA binding in rat brain membranes
condition.description: Table 2, compounds 33-58; [3H]R-PIA, rat brain membranes, n = 3-5; read-out: rA1 Ki ± S.E.M.
readout.type: pKi
pKi is defined as minus the log10 of a concentration measured in mol/L.

CCOC(=O)c1c(C)nc(C2CCCC2)c(C(=O)OCc2ccccc2)c1C#Cc1ccccc1 | 4.25
CCCc1nc(-c2ccccc2)c(C(=O)OCC)c(CC)c1C(=O)SCC | 4.78
CCCOC(=O)c1c(-c2ccccc2)nc(CC)c(C(=O)SCC)c1CC [Compound 49a] | 5.11
CCOC(=O)c1c(CC)nc(-c2ccccc2)c(C(=O)OCC)c1C | 4.99

Let's switch to this compound now.
-- ask Need pKi of CCCOC(=O)c1c(-c2cccc(Cl)c2)nc(CC)c(C(=O)SCCC)c1CC , thanks.
-- reply 4.38

###

target.desc: human A3 receptors (Homo sapiens, UniProt P0DMS8)
Construct: expressed in transfected cells
Sequence (P0DMS8 1-318): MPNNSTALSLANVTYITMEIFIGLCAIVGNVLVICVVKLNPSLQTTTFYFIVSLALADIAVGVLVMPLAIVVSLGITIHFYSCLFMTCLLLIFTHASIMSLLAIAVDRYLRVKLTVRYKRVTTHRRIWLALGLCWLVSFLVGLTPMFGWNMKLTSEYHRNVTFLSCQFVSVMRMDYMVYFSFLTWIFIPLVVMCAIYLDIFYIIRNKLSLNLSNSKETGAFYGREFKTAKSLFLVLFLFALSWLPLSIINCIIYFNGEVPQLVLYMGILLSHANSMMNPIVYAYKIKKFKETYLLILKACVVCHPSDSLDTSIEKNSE
method: Displacement of specific [125I]AB-MECA binding at human A3 receptors expressed in HEK cells, in membranes
condition.description: Table 2; ratio of affinities rat A1 vs human A3
Recorded rA1/hA3, one value per entry.
Keep the answer to the number alone.

Example compounds with recorded rA1/hA3:
CCCc1nc(-c2ccccc2)c(C(=O)OCC)c(CC)c1C(=O)SCC | 500
CCCOC(=O)c1c(-c2ccccc2)nc(CC)c(C(=O)SCC)c1CC [Compound 6] | 8.20
CCOC(=O)c1c(C)nc(-c2ccccc2)c(C(=O)OCC)c1CC | 19

-- ask Need rA1/hA3 of CCCOC(=O)c1c(-c2ccccc2)nc(CC)c(C(=O)SCC)c1CC [Compound 49a] , thanks.
-- reply 940

-- ask Need rA1/hA3 of CCCOC(=O)c1c(-c2ccccc2)nc(CC)c(C(=O)SCCO)c1CCC , thanks.
-- reply 210

-- ask Need rA1/hA3 of CCOC(=O)c1c(C)nc(-c2ccccc2)c(C(=O)OCC)c1C , thanks.
-- reply 1.7

-- ask Need rA1/hA3 of CCOC(=O)c1c(-c2ccccc2)nc(CCOC)c(C(=O)SCC)c1CC , thanks.
-- reply 600

-- ask Need rA1/hA3 of CCOC(=O)c1c(C)nc(-c2ccccc2)c(C(=O)OCc2ccccc2)c1C#Cc1ccccc1 , thanks.
-- reply 4.2

-- ask Need rA1/hA3 of CCOC(=O)c1c(C)nc(-c2ccccc2)c(C(=O)OCC)c1C(OC)OC , thanks.
-- reply 2.5

-- ask Need rA1/hA3 of CCOC(=O)c1c(-c2cccc(Cl)c2)nc(CC)c(C(=O)SCC)c1CC , thanks.
-- reply 610

-- ask Need rA1/hA3 of CCOC(=O)c1c(C)nc(C2CCCC2)c(C(=O)OCc2ccccc2)c1C#Cc1ccccc1 , thanks.
-- reply 15

-- ask Need rA1/hA3 of CCCOC(=O)c1c(C)nc(-c2ccccc2)c(C(=O)OCC)c1C , thanks.
-- reply 23

-- ask Need rA1/hA3 of CCOC(=O)c1c(CC)nc(-c2ccccc2)c(C(=O)OCC)c1C , thanks.
-- reply 85

-- ask Need rA1/hA3 of CCCc1c(C(=O)SCC)c(CC)nc(-c2ccccc2)c1C(=O)OCC(F)(F)C(F)(F)F , thanks.
-- reply 13

-- ask Need rA1/hA3 of CCCOC(=O)c1c(-c2ccccc2)nc(CC)c(C(=O)SCC)c1CCC [Compound 49b] , thanks.
-- reply 7400

###

target.desc: human A3 receptors (Homo sapiens)
Construct: expressed in transfected cells
method: Displacement of specific [125I]AB-MECA binding at human A3 receptors expressed in HEK cells, in membranes
condition.description: Table 2, compounds 33-58; [125I]AB-MECA, HEK cell membranes, n = 3-4; read-out: hA3 Ki ± S.E.M.
readout.type: Ki
Include the unit after the number when you answer.

Example compounds with recorded Ki:
CCOC(=O)c1c(C)nc(-c2ccccc2)c(C(=O)OCc2ccccc2)c1C#Cc1ccccc1 | 2750 nM
CCOC(=O)c1c(C)nc(-c2ccccc2)c(C(=O)OCC)c1C(OC)OC | 783 nM
CCOC(=O)c1c(CC)nc(-c2ccccc2)c(C(=O)OCC)c1C | 121 nM

Let's switch to this compound now.
-- ask Need Ki of CCOC(=O)c1c(C)nc(C2CCCC2)c(C(=O)OCc2ccccc2)c1C#Cc1ccccc1 , thanks.
-- reply 3850 nM

###

target.desc: A1 adenosine receptors (Rattus norvegicus)
Construct: from tissue
Sequence (P25099 1-326): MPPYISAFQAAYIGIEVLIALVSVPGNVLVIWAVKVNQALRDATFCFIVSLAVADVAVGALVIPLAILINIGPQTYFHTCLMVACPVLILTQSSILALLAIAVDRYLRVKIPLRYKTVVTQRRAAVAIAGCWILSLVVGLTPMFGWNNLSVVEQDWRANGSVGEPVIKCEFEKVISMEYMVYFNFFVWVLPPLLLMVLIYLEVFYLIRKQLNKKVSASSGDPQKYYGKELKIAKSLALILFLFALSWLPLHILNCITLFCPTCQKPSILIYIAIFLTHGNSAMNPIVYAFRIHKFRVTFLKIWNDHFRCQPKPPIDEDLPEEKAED
method: Displacement of specific [3H]R-PIA binding in rat brain membranes
condition.description: Table 3; at 10^−4 M; read-out: rA1 % inhibition (percentage of specific binding displaced)
Recorded inhibition at 100 µM, one value per entry.
Return type: number; implicit unit %.

-- ask Form field - read-out: inhibition at 100 µM; system: A1 adenosine receptors (Rattus norvegicus); submitted item: CCSC(=O)C1=C(C)NC(c2ccccc2)=C(C(=O)OCc2ccccc2)C1CC (racemic) [Compound 65]
-- reply 45

-- ask Form field - read-out: inhibition at 100 µM; system: A1 adenosine receptors (Rattus norvegicus); submitted item: CCCC1=C(C(=O)SCC)C(CC)C(C(=O)OCC)=C(c2ccccc2)N1 (racemic) [Compound 76]
-- reply 26

-- ask Form field - read-out: inhibition at 100 µM; system: A1 adenosine receptors (Rattus norvegicus); submitted item: CCCC1C(C(=O)SCC)=C(C)NC(c2ccccc2)=C1C(=O)OCC (racemic) [Compound 64]
-- reply 48

-- ask Form field - read-out: inhibition at 100 µM; system: A1 adenosine receptors (Rattus norvegicus); submitted item: CCOC(=O)C1=C(CC)NC(c2ccccc2)=C(C(=O)OCC)C1C (racemic) [Compound 74]
-- reply 20

###

target.desc: A1 adenosine receptors (Rattus norvegicus)
Construct: from tissue
Sequence (P25099 1-326): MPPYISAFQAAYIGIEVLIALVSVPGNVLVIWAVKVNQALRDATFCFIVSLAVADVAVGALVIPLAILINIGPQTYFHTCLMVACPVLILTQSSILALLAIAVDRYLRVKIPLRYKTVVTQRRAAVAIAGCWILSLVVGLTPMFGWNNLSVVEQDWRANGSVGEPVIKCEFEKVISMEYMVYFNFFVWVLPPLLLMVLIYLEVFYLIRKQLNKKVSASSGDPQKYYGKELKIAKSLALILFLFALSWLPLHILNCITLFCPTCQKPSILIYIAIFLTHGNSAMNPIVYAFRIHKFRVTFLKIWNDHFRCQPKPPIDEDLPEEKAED
method: Displacement of specific [3H]R-PIA binding in rat brain membranes
condition.description: Table 2, compounds 33-58; [3H]R-PIA, rat brain membranes, n = 3-5; read-out: rA1 Ki ± S.E.M.
readout.type: Ki (µM)
Return type: number; implicit unit µM.

Example compounds with recorded Ki:
CCOC(=O)c1c(C)nc(-c2ccccc2)c(C(=O)OCC)c1C(OC)OC | 1.95
CCOC(=O)c1c(C)nc(-c2ccccc2)c(C(=O)OCC)c1C=O | 9.56
CCOC(=O)c1c(-c2cccc(Cl)c2)nc(CC)c(C(=O)SCC)c1CC | 8.2

-- ask Need Ki of CCCOC(=O)c1c(C)nc(-c2ccccc2)c(C(=O)OCC)c1C , thanks.
-- reply 5.05

-- ask Need Ki of CCOC(=O)c1c(-c2ccccc2)nc(C)c(C(=O)SCC)c1CC , thanks.
-- reply 14.8
